Assay: Metabolic stability in pooled liver microsomes
Assay type: in vitro ADME, human
Conditions: human, pooled liver microsomes, pH 7.6, human liver microsomes, 1 μM test compound, 37° C.; read-out: Half-life - t½
Each entry below carries its recorded half-life at 1 μM.
Only the number, expressed in min, is required.

Some compounds with recorded half-life at 1 μM:
> print(dat)
                                   compound  testresult
1  Cc1ccc(CC(C)(C)O)cc1-c1nnc2c(C)nc3ccc(C4CC4)nc3n12          26
2  CCCC(O)c1ccc(Cl)c(-c2nnc3c(C)nc4ccc(C)nc4n23)c1 (centres unmarked)          65
3  Cc1nc2ccc(C3CC3)nc2n2c(-c3cc(C4(O)CCOC4)ccc3Cl)nnc12 (racemic)          51
4  Cc1nc2ccc(C(F)(F)F)nc2n2c(-c3cc(O)ccc3Cl)nnc12          63

## Input Recorded half-life at 1 μM of `Cc1nc2ccc(C(C)C)nc2n2c(-c3cc(C4(O)CCC4)ccc3F)nnc12` , please.
## Output 23

## Input Item `Cc1ccc(C(C)(C)O)cc1-c1nnc2c(C)nc3ccc(C(C)C)nc3n12` has what recorded half-life at 1 μM?
## Output 79

## Input half-life at 1 μM for Cc1ccc(OC2COCC2O)cc1-c1nnc2c(C)nc3ccc(C4CC4)nc3n12 (single isomer, unassigned) [Example 57b] ?
## Output 93

## Input Requested read-out: half-life at 1 μM. Entry: `Cc1nc2ccc(C3CC3)nc2n2c(-c3cc(O)ccc3Cl)nnc12`
## Output 41

====

In this section we review reported pIC50 values for a set of compounds.
Biological target: PDE 2A (Homo sapiens (Human), UniProt O00408)
Sequence (O00408 whole entry, species assumed): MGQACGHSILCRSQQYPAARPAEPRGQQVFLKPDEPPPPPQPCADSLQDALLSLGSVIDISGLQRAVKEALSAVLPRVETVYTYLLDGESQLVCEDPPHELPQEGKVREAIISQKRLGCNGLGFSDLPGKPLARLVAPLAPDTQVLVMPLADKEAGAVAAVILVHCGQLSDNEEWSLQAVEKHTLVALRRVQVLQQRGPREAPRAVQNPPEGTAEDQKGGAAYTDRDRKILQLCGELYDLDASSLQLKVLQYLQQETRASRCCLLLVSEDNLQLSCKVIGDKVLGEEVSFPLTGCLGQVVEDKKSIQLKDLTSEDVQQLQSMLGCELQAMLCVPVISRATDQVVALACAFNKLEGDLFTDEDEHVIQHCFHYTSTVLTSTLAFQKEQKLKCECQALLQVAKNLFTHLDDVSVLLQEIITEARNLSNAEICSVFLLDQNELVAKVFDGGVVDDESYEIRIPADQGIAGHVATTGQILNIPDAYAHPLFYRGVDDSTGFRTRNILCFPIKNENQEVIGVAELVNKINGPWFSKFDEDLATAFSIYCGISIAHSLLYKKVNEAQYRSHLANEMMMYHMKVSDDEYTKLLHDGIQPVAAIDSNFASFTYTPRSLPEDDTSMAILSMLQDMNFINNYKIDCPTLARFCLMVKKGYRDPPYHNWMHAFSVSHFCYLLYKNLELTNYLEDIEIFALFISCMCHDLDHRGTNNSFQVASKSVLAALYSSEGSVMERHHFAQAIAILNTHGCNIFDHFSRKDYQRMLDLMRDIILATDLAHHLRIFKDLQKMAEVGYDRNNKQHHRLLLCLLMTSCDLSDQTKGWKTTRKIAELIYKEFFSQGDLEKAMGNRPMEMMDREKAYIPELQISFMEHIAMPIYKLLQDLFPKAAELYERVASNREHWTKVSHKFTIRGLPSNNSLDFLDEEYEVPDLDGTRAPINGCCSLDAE
Assay: PDE 2A assay with fluorescent substrate (IMAP, fluorescence polarization)
Format: biochemical
Details: read-out: PDE2 IC50
In simple prose, pIC50 is minus the logarithm base ten of a concentration in moles per litre.

For orientation, consider the following solved cases.
> print(dat)
                                    compound  testresult
 1  Cc1nc2ccc(C(F)(F)F)nc2n2c(-c3cc(C4(O)CCCOC4)ccc3Cl)nnc12 (single isomer, unassigned) [Example 114a]        8.05
 2  Cc1nc2cccnc2n2c(-c3cc(C4(O)CCCOC4)ccc3Cl)nnc12 (single isomer, unassigned) [Example 112a]        7.60
 3  Cc1nc2cccnc2n2c(-c3cc(C4(O)CCCOC4)ccc3Cl)nnc12 (racemic) [Example 112]        7.74
 4  Cc1nc2ccc(C(F)(F)F)nc2n2c(-c3cc(C4(O)CCOC4)ccc3Cl)nnc12 (single isomer, unassigned) [Example 115b]        7.35
 5  Cc1nc2ccc(C(F)(F)F)nc2n2c(-c3cc(OC4COCC4O)ccc3Cl)nnc12 (single isomer, unassigned) [Example 111a]        7.19
 6  Cc1nc2ccc(C(F)(F)F)nc2n2c(-c3cc(C4(O)CCCOC4)ccc3Cl)nnc12 (single isomer, unassigned) [Example 114b]        7.96
 7  Cc1nc2cccnc2n2c(-c3cc(C4(O)CCCOC4)ccc3Cl)nnc12 (single isomer, unassigned) [Example 112b]        7.17
 8  Cc1nc2ccc(C3CC3)nc2n2c(-c3cc(OC4COCC4O)ccc3F)nnc12 (racemic) [Example 107]        8.15
 9  Cc1nc2ccc(C(F)(F)F)nc2n2c(-c3cc(C4(O)CCOC4)ccc3Cl)nnc12 (single isomer, unassigned) [Example 115a]        7.09
10  Cc1nc2cccnc2n2c(-c3cc(OC4COCC4O)ccc3Cl)nnc12 (racemic) [Example 55]        7.10

## Input I have this compound here, Cc1nc2ccc(C(F)(F)F)nc2n2c(-c3cc(OC4COCC4O)ccc3Cl)nnc12 (single isomer, unassigned) [Example 111b] , and I need its recorded pIC50.
## Output 7.96
